STUDY_SYSTEM: baculovirus-expressed ALK (Homo sapiens)
Construct: host or cells: baculovirus expression system
Sequence (Q9UM73 19-1620): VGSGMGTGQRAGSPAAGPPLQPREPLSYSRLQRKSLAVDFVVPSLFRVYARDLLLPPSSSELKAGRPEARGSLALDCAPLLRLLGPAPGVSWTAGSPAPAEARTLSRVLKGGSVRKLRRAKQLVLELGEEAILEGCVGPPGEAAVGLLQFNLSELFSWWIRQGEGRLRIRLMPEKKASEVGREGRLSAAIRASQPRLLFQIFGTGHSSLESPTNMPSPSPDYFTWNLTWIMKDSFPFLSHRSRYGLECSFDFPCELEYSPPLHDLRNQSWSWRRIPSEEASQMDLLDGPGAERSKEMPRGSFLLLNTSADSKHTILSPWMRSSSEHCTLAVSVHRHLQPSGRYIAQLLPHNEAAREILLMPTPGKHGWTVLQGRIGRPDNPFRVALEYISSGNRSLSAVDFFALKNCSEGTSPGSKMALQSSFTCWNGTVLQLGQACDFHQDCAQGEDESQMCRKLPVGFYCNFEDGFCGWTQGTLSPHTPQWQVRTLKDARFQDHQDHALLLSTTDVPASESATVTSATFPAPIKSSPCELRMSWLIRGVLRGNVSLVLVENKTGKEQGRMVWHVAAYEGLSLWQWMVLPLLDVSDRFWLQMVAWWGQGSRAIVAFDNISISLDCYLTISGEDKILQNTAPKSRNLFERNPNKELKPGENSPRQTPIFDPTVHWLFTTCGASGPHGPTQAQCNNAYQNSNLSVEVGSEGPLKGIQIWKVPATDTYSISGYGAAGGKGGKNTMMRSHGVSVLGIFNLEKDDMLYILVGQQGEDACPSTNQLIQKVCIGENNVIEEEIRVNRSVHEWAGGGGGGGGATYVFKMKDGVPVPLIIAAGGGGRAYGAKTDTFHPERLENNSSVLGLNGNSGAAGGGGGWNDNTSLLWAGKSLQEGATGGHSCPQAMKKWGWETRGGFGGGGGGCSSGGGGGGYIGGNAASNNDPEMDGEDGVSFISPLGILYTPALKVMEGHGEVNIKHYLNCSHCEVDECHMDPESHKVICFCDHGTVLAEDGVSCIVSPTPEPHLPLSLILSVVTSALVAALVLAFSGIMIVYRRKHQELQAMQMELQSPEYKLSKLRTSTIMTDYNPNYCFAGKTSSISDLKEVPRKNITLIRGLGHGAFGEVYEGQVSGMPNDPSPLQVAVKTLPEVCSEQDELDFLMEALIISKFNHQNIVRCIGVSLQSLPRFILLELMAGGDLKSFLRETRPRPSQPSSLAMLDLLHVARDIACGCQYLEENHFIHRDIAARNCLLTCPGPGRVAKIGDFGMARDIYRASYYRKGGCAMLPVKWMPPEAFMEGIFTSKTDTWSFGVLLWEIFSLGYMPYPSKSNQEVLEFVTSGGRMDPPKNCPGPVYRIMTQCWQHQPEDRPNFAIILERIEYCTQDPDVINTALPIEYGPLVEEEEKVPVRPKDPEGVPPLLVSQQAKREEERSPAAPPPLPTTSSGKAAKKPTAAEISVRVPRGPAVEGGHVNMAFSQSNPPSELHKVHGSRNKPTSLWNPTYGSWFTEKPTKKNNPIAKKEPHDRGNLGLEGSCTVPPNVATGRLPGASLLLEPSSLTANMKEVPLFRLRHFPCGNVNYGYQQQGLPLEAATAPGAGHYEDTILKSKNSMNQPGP
PROTOCOL_DETAILS: ALK Kinase Assay (ELISA-type, time-resolved fluorescence)
Assay type: biochemical
ASSAY_CONDITIONS: 1 μM ATP (Km level), 30 ng/ml ALK, 37° C., 15 minutes; read-out: ALK Activity (ALK kinase inhibition, IC50 class)
Catalogue of compounds with associated IC50

QUERY: Determine reported IC50 for COCCOc1ccc(Nc2nc(Nc3cc4c(cc3OC)CCN(Cc3nccn3C)CC4)ncc2Cl)c(OC)c1 ; test system: baculovirus-expressed ALK (Homo sapiens).
RESULT: < 100 nM

QUERY: Give measured IC50 for CCN1C(=O)CCCc2ccc(Nc3ncc(Cl)c(Nc4ccc(OCC#N)cc4)n3)cc21 (baculovirus-expressed ALK (Homo sapiens)).
RESULT: 100 to 1000 nM

QUERY: Specify IC50 for COCCNC1CCc2cc(Nc3ncc(Cl)c(Nc4ccccc4S(=O)(=O)C(C)C)n3)c(OC)cc2CC1 (stereo not drawn) , system baculovirus-expressed ALK (Homo sapiens).
RESULT: < 100 nM

meta.source: patent US8148391B2
